Taken from patent US8592161B2.

- System: HIV-1/LAI strain selected with Compound 1 (100 nM, 97 days), protease R41T K70E
- METHOD: In vitro antiviral activity in acutely infected MT4 cells, selected strain
- Format: cell-based
- CONDITION_DESCRIPTION: Human immunodeficiency virus 1, Table 1, strain R41T K70E (Compound 1 100 nM, 97 days), read-out: median EC50
Exercise: for every item that follows, state its recorded EC50.
Only the number, expressed in nM, is required.

input: Would you mind telling me what EC50 value was observed for Cc1c(O)cccc1C(=O)N[C@@H](CSc1ccccc1)[C@H](O)CN1C[C@H]2CCCC[C@H]2C[C@H]1C(=O)NC(C)(C)C [Nelfinavir] ?
output: 18

input: Would you mind telling me what EC50 value was observed for CC(C)CN(C[C@@H](O)[C@H](Cc1ccccc1)NC(=O)O[C@H]1CCOC1)S(=O)(=O)c1ccc(N)cc1 [Amprenavir] ?
output: 29

input: Would you mind telling me what EC50 value was observed for CC(C)CN(C[C@@H](O)[C@H](Cc1ccccc1)NC(=O)O[C@H]1CO[C@H]2OCC[C@H]21)S(=O)(=O)c1ccc(N)cc1 [Compound 1] ?
output: 26

input: Would you mind telling me what EC50 value was observed for CC(C)(C)NC(=O)[C@@H]1C[C@@H]2CCCC[C@@H]2CN1C[C@@H](O)[C@H](Cc1ccccc1)NC(=O)[C@H](CC(N)=O)NC(=O)c1ccc2ccccc2n1 [Saquinavir] ?
output: 35

input: Would you mind telling me what EC50 value was observed for CC(C)(C)NC(=O)[C@@H]1CN(Cc2cccnc2)CCN1C[C@@H](O)C[C@@H](Cc1ccccc1)C(=O)N[C@H]1c2ccccc2C[C@H]1O [Indinavir] ?
output: 98

input: Would you mind telling me what EC50 value was observed for CC(C)c1nc(CN(C)C(=O)N[C@H](C(=O)N[C@@H](Cc2ccccc2)C[C@H](O)[C@H](Cc2ccccc2)NC(=O)OCc2cncs2)C(C)C)cs1 [Ritonavir] ?
output: 21

====

Exercise: for every item that follows, state its recorded EC50.
- System: HIV-1/LAI strain selected with Compound 1 (30 nM, 45 days), protease R41T
- METHOD: In vitro antiviral activity in acutely infected MT4 cells, selected strain
- Format: cell-based
- CONDITION_DESCRIPTION: Human immunodeficiency virus 1, Table 1, strain R41T (Compound 1 30 nM, 45 days), read-out: median EC50
Only the number, expressed in nM, is required.

input: Would you mind telling me what EC50 value was observed for CC(C)c1nc(CN(C)C(=O)N[C@H](C(=O)N[C@@H](Cc2ccccc2)C[C@H](O)[C@H](Cc2ccccc2)NC(=O)OCc2cncs2)C(C)C)cs1 [Ritonavir] ?
output: 32

input: Would you mind telling me what EC50 value was observed for CC(C)CN(C[C@@H](O)[C@H](Cc1ccccc1)NC(=O)O[C@H]1CO[C@H]2OCC[C@H]21)S(=O)(=O)c1ccc(N)cc1 [Compound 1] ?
output: 7.7

input: Would you mind telling me what EC50 value was observed for CC(C)(C)NC(=O)[C@@H]1CN(Cc2cccnc2)CCN1C[C@@H](O)C[C@@H](Cc1ccccc1)C(=O)N[C@H]1c2ccccc2C[C@H]1O [Indinavir] ?
output: 33

input: Would you mind telling me what EC50 value was observed for Cc1cccc(C)c1OCC(=O)N[C@@H](Cc1ccccc1)[C@@H](O)C[C@H](Cc1ccccc1)NC(=O)[C@H](C(C)C)N1CCCNC1=O [Lopinavir] ?
output: 27

input: Would you mind telling me what EC50 value was observed for CC(C)CN(C[C@@H](O)[C@H](Cc1ccccc1)NC(=O)O[C@H]1CCOC1)S(=O)(=O)c1ccc(N)cc1 [Amprenavir] ?
output: 38

input: Would you mind telling me what EC50 value was observed for CC(C)(C)NC(=O)[C@@H]1C[C@@H]2CCCC[C@@H]2CN1C[C@@H](O)[C@H](Cc1ccccc1)NC(=O)[C@H](CC(N)=O)NC(=O)c1ccc2ccccc2n1 [Saquinavir] ?
output: 30

input: Would you mind telling me what EC50 value was observed for Cc1c(O)cccc1C(=O)N[C@@H](CSc1ccccc1)[C@H](O)CN1C[C@H]2CCCC[C@H]2C[C@H]1C(=O)NC(C)(C)C [Nelfinavir] ?
output: 32
